Biological target: BACE1 (HTRF long substrate and FRET short substrate assays of Example 9D)
Test: cell-based or functional assay
assay-endpoint: EC50, HTRF long substrate (nM)
Field: numeric (nM). Do not append units.

# example entries with known answers
- 5875 (antibody, V domains shown, anti-BACE1 IgG) VH: EVQLLESGGGLVQPGGSLRLSCAASGFTFSTYAMGWVRQAPGKGLEWVSATSGSGGSTYYADSVKGRFTISRDNSKNTLYLQMNSLRAEDTAVYYCAKGGSQWLYAPGSWFDPWGQGTLVTVSS VL: EIVLTQSPATLSLSPGERATLSCRASQSVSSYLAWYQQKPGQAPRLLIYDASNRATGIPARFSGSGSGTDFTLTISSLEPEDFAVYYCVQRSNFPWTFGGGTKVEIK: 4.9
- 5884 (antibody, V domains shown, anti-BACE1 IgG) VH: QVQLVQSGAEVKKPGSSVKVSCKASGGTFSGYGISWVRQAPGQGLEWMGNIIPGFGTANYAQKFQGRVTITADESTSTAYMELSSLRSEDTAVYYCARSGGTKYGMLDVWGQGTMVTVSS VL: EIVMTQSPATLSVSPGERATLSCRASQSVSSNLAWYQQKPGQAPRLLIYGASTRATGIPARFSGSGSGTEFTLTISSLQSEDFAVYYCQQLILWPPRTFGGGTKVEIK: 7.76

Indicate its recorded EC50, HTRF long substrate; the binder in question is 5881 (antibody, V domains shown, anti-BACE1 IgG) VH: EVQLLESGGGLVQPGGSLRLSCAASGFTFSKYAMSWVRQAPGKGLEWVSAISGSGISTPYADSVKGRFTISRDNSKNTLYLQMNSLRAEDTAVYYCAKGAGHGSYVKGWFDPWGQGTLVTVSS VL: EIVLTQSPATLSLSPGERATLSCRASQSVSSYLAWYQQKPGQAPRLLIYDASNRATGIPARFSGSGSGTDFTLTISSLEPEDFAVYYCQQSVNFPFTFGGGTKVEIK
33.7

Indicate its recorded EC50, HTRF long substrate; the binder in question is 5878 (antibody, V domains shown, anti-BACE1 IgG) VH: EVQLLESGGGLVQPGGSLRLSCAASGFTFSSYAMSWVRQAPGKGLEWVSAISGSGISTPYADSVKGRFTISRDNSKNTLYLQMNSLRAEDTAVYYCAKGAGHGSYVKGWFDPWGQGTLVTVSS VL: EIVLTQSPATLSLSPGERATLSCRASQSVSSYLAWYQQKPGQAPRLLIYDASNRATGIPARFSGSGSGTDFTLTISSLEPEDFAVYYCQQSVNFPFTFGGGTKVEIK
164
